Reported hNE/hPr3 selectivity values for a set of compounds
# System Name: human proteinase 3 (Homo sapiens, UniProt P24158)
# Construct: purchased Elastin Products Company, USA
# Sequence (P24158 28-248): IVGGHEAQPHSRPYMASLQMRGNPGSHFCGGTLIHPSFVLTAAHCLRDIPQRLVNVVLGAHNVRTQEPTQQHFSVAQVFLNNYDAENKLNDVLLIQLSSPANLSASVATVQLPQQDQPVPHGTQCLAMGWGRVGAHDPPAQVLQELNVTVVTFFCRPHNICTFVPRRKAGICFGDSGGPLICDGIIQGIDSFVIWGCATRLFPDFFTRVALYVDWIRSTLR
# Procedure Text: Inhibition of human proteinase 3 (substrate Boc-Ala-Ala-Nva-SBzl)
# Type: biochemical
# Test Conditions: ratio of hPr3 IC50 to hNE IC50
Where a SMILES comes first, the peptide text is derived from it. [ ]: non-standard residue; d: D form. Oic = O=C(O)[C@@H]1C[C@@H]2CCCC[C@@H]2N1; Gly(octyl) = CCCCCCCC[C@H](N)C(=O)O; β3hK = NCCCC[C@H](N)CC(=O)O; Aze = O=C(O)[C@@H]1CCN1
Assay Metric: hNE/hPr3 selectivity

Compound	System Name	Assay Metric	Rel	Quantitative Readout
CCCCCCCC[C@@H]1NC(=O)[C@H](C)NC(=O)[C@@H](C)NC(=O)[C@H]([C@@H](C)O)NC(=O)[C@H](CCCCN)NC(=O)[C@H](CCC(N)=O)NC(=O)[C@@H]2CCCN2C(=O)[C@@H]2CCCN2C(=O)[C@H]([C@@H](C)CC)NC(=O)[C@H](CO)NC(=O)[C@H](C)NC(=O)[C@H]([C@@H](C)O)NC(=O)[C@H](CCC(=O)O)NC1=O [Example 20] (cyclo([Gly(octyl)]ETASIPPQKT[dA]A))	human proteinase 3 (Homo sapiens, UniProt P24158)	hNE/hPr3 selectivity	=	669
CCCCCCCC[C@@H]1NC(=O)[C@@H]2C[C@@H]3CCCC[C@@H]3N2C(=O)[C@H]2CCCN2C(=O)[C@H]([C@@H](C)O)NC(=O)[C@H](CCCCN)NC(=O)[C@H](CCC(N)=O)NC(=O)[C@@H]2CCCN2C(=O)[C@@H]2CCCN2C(=O)[C@H]([C@@H](C)CC)NC(=O)[C@H](CO)NC(=O)[C@H](C)NC(=O)[C@H]([C@@H](C)O)NC(=O)[C@H](CCC(=O)O)NC1=O [Example 6] (cyclo([Gly(octyl)]ETASIPPQKT[dP][Oic]))	human proteinase 3 (Homo sapiens, UniProt P24158)	hNE/hPr3 selectivity	=	372
CCCCCCCC[C@@H]1NC(=O)[C@H](CCCCN)NC(=O)[C@@H](CCCCN)NC(=O)[C@H]([C@@H](C)O)NC(=O)[C@H](CCCCN)NC(=O)[C@H](CCC(N)=O)NC(=O)[C@@H]2CCCN2C(=O)[C@@H]2CCCN2C(=O)[C@H]([C@@H](C)CC)NC(=O)[C@H](CO)NC(=O)[C@H](C)NC(=O)[C@H]([C@@H](C)O)NC(=O)[C@H](CCC(=O)O)NC1=O [Example 28] (cyclo([Gly(octyl)]ETASIPPQKT[dK]K))	human proteinase 3 (Homo sapiens, UniProt P24158)	hNE/hPr3 selectivity	>	8333
CCCCCCCC[C@@H]1NC(=O)[C@@H]2CCCN2C(=O)[C@H]2CCCN2C(=O)[C@H]([C@@H](C)O)NC(=O)[C@H](CCCCN)NC(=O)[C@H](CCC(N)=O)NC(=O)[C@@H]2CCN2C(=O)[C@@H]2CCCN2C(=O)[C@H]([C@@H](C)CC)NC(=O)[C@H](CO)NC(=O)[C@H](C)NC(=O)[C@H]([C@@H](C)O)NC(=O)[C@H](CCC(=O)O)NC1=O [Example 46] (cyclo([Gly(octyl)]ETASIP[Aze]QKT[dP]P))	human proteinase 3 (Homo sapiens, UniProt P24158)	hNE/hPr3 selectivity	=	310
CCCCCCCC[C@@H]1NC(=O)[C@@H]2CCCN2C(=O)[C@H]2CCCN2C(=O)[C@H]([C@@H](C)O)NC(=O)C[C@H](CCCCN)NC(=O)[C@H](CCC(N)=O)NC(=O)[C@@H]2CCCN2C(=O)[C@@H]2CCCN2C(=O)[C@H]([C@@H](C)CC)NC(=O)[C@H](CO)NC(=O)[C@H](C)NC(=O)[C@H]([C@@H](C)O)NC(=O)[C@H](CCC(=O)O)NC1=O [Example 37] (cyclo([Gly(octyl)]ETASIPPQ[β3hK]T[dP]P))	human proteinase 3 (Homo sapiens, UniProt P24158)	hNE/hPr3 selectivity	=	371
